System name: UniProtKB F9UUC2
Sequence (F9UUC2 entry or part of it): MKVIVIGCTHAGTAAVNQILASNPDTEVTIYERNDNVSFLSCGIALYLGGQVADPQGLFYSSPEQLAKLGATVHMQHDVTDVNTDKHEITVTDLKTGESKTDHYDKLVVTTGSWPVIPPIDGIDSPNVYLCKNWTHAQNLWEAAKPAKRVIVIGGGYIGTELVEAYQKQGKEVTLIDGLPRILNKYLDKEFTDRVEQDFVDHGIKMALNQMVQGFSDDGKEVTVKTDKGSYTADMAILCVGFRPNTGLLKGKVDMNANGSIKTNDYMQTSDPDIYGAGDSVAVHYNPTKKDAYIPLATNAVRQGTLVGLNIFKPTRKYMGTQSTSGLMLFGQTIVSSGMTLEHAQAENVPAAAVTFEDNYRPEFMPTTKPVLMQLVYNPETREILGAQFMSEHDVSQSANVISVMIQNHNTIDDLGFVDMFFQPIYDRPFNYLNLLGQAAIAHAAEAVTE
Endpoint name: pKi
Would you please state pKi, meaning minus log10 of the concentration in mol/L, as a bare number?

### Prompt Find the measured pKi: item NC(=O)c1ccc[n+]([C@@H]2O[C@H](COP(=O)([O-])OP(=O)(O)OC[C@H]3O[C@@H](n4cnc5c(N)ncnc54)[C@H](O)[C@@H]3O)[C@@H](O)[C@H]2O)c1 [NAD^+] , target or system UniProtKB F9UUC2.
### Response 3.54
